# Target: PD-1 (Homo sapiens (Human)) (UniProt Q15116)
# Sequence (Q15116 21-288 limits assumed): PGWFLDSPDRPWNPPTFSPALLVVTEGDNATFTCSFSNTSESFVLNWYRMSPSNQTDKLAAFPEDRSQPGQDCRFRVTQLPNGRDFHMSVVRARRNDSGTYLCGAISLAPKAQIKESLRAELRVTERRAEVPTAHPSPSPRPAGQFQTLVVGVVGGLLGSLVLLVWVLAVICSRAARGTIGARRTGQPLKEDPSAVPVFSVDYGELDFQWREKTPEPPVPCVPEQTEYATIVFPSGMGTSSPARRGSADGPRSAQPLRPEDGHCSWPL
# Procedure text: flow cytometry, Jurkat/PD-1 cells
MFI at 50 nM: recorded values
The answer should be written as a number, with no unit following it.

// worked examples, MFI at 50 nM included
INSERT INTO assay_data (binder, recorded_number) VALUES
  ('variant PD-L2 IgV-Fc H15Q, T47A, Q72H, R76G, I86T (Fc fusion, not shown: a dimerising Fc or GST; small tags and cut ends) LFTVTVPKELYIIEQGSNVTLECNFDTGSHVNLGAITASLQKVENDASPHRERATLLEEQLPLGKASFHIPHVQVGDEGQYQCIITYGVAWDYKYLTLK', 32100),
  ('variant PD-L2 IgV-Fc I13V, S67L, Q82R, V89D (Fc fusion, not shown: a dimerising Fc or GST; small tags and cut ends) FTVTVPKELYIVEHGSNVTLECNFDTGSHVNLGAITASLQKVENDTSPHRERATLLEEQLPLGKALFHIPQVQVRDEGQYRCIIIYGDAWDYKYLTLK', 59000),
  ('variant PD-L2 IgV-Fc E44D (Fc fusion, not shown: a dimerising Fc or GST; small tags and cut ends) LFTVTVPKELYIIEHGSNVTLECNFDTGSHVNLGAITASLQKVDNDTSPHRERATLLEEQLPLGKASFHIPQVQVRDEGQYQCIIIYGVAWDYKYLTLK', 2930);

Now for a further binder.
Return reported MFI at 50 nM. Input binder: variant PD-L2 IgV-Fc I13V, H15Q, T47A, Q82R, V89D (SEQ ID NO 1544) (Fc fusion, not shown: a dimerising Fc or GST; small tags and cut ends) FTVTVPKELYIVEQGSNVTLECNFDTGSHVNLGAITASLQKVENDASPHRERATLLEEQLPLGKASFHIPQVQVRDEGQYRCIIIYGDAWDYKYLTLK
63300
